Experiment: qHTS RealTime-Glo MT Cell Viability Assay in HEK293 cells - 40 hour (AID 1224874); also: % is scaled to controls: 0 for no effect and ±100 for the full control effect; nearly all actives have a fitted effect of over 50% in size
Conditions: RealTime-Glo luminescence; active compounds read low
Records with an inconclusive call do not appear.
Please go through the items and note down their max response.
Give bare numbers, in %.

Known max response results, listed for orientation:
// lookup max response for "Cc1ccc(C#N)cc1"
6.96

Look up max response: N#Cc1ccc(C2CCCc3cncn32)cc1 (stereo unspecified)
8.46

Which max response reading was recorded for the molecule "C=C(C)CS(=O)(=O)O" ?
-0.0402

Any idea what max response was measured for "O=C(O)COc1nn(Cc2ccccc2)c2ccccc12" ?
3.59

# lookup: max response of "CC(C)(CC(=O)O)C(=O)O"
0.211

Go through the list and state max response for each entry.
1. FC1(F)C(F)(F)C(F)(F)C2(F)C(F)(F)C(F)(F)C(F)(F)C(F)(F)C2(F)C1(F)F (stereo unspecified)
2. CC(C)CNCC(C)C
3. O=C(O)CCCc1ccccc1
4. CN1CCC(=C2c3ccccc3CC(=O)c3sccc32)CC1

[1.37, 0.947, 0.564, -28.2]

Look at each molecule and report its max response.
1. COc1ccc2c(c1)c(CC(=O)OCC(=O)O)c(C)n2C(=O)c1ccc(Cl)cc1
2. C=CCS(=O)(=O)O
3. Cc1c(O)cccc1O
4. CCCCC(CC)COC(=O)c1ccccc1O (stereo unspecified)
5. CCOC(=O)CCC(C)=O

1: 5.11; 2: 0.443; 3: 1.57; 4: 0.0024; 5: -9.25

Return reported max response values for all items listed beneath this line.
1. NC(=O)COCCN1CCN(C(c2ccccc2)c2ccc(Cl)cc2)CC1 (stereo unspecified)
2. CC(NC(CCc1ccccc1)C(=O)O)C(=O)N1C(=O)N(C)CC1C(=O)O (stereo unspecified)
3. O=C(O)CNC(=O)c1ccc([N+](=O)[O-])cc1
4. CCCCOCCOCCOCCCC
5. COc1c(N2C[C@@H]3CCCN[C@@H]3C2)c(F)cc2c(=O)c(C(=O)O)cn(C3CC3)c12
6. Cc1[nH]c(=O)c(C#N)cc1-c1ccc2nccn2c1
7. O=C1CCCC(=O)C1
8. O=C[C@H](O)[C@@H](O)[C@H](O)[C@H](O)CO

1. 4.08
2. -1.88
3. -0.136
4. 3.79
5. -3.41
6. 5.99
7. 1.44
8. 17.2

Below are some molecules; for each one, tell me its max response.
1. CCCCCCCCCCCCCCCCC
2. CC(C)NCC(O)c1ccc(NS(C)(=O)=O)cc1 (stereo unspecified)
3. CC(=O)N(CC(O)CO)c1c(I)c(C(=O)NCCO)c(I)c(C(=O)NCC(O)CO)c1I (stereo unspecified)
4. CCCC(=O)O[C@]1(C(=O)CO)CC[C@H]2[C@@H]3CCC4=CC(=O)CC[C@]4(C)[C@H]3[C@@H](O)C[C@@]21C

1: 5.06; 2: 4.96; 3: 9.14; 4: 0.181

---

Assay: qHTS assay to identify small molecule antagonists of the retinoic acid receptor (RAR) signaling pathway (AID 1159552; also: % is scaled to controls: 0 for no effect and ±100 for the full control effect; nearly all actives have a fitted effect of over 50% in size)
Conditions: C3RL4 RARE luciferase reporter, retinol-stimulated, 6 h; series mostly up to 92.4 µM
Records with an inconclusive call do not appear. Calls of active or inactive are those of the source. The call rests on the fitted dose curve; in most records, active means well fitted inhibition curve with a large enough effect in the repeat runs; inconclusive means weak or mixed curves, or effect the other way; inactive means no such curve, though single readings can be large or run the other way.
quantity.name: activity, negative = inhibition

I would be grateful if you could share the reported activity, negative = inhibition for "Cc1ccc(C#N)cc1" .
inactive

Entry "C=CCOCC(CC)(CO)COCC=C" has what activity, negative = inhibition?
inactive

May I ask what activity, negative = inhibition has been recorded for "O=C(c1ccccc1)C1CCCCC1" ?
inactive

Name the recorded activity, negative = inhibition for "CN1CCN(c2cc3c(cc2F)c(=O)c(C(=O)O)cn3-c2ccc(F)cc2)CC1" .
inactive

Reported activity, negative = inhibition, compound FC(F)OC(Cl)C(F)(F)F (stereo not drawn) : ____
inactive

Quick one: activity, negative = inhibition of "CCc1nccnc1CC" ?
7.06% [at 19 µM] (inactive)

What does the data say about its activity, negative = inhibition? Entry: COc1ccc(CCN(C)CCCC(C#N)(c2cc(OC)c(OC)c(OC)c2)C(C)C)cc1OC (stereo not drawn)
inactive

Others:
Recorded activity, negative = inhibition of "CN1CCCC1" , please.
inactive

---

Target: Cytochrome P450 3A4 (Homo sapiens)
Assay: Cytochrome P450 Family 3 Subfamily A Member 4 (CYP3A4) small molecule antagonists: luciferase reporter qHTS assay (AID 1671201); also: % is scaled to controls: 0 for no effect and ±100 for the full control effect; nearly all actives have a fitted effect of over 50% in size
Details: P450-Glo CYP3A4 enzyme, luciferin luminescence, 1 h; series mostly up to 115 µM
Inconclusive results are not listed. The source made the active and inactive calls. Calls come from the whole dose curve; as a rule, active = well fitted inhibition curve with a large enough effect in the repeat runs; inconclusive = weak or mixed curves; inactive = no such curve, though single readings can be large or run the other way.
quantity.name: activity change, negative = inhibition

# annotated cases, reported activity change, negative = inhibition shown
Record request: activity change, negative = inhibition value, item "O=c1cc(CO)occ1O"
inactive

For "O=c1n(CCO)c(=O)n(CCO)c(=O)n1CCO" , what is its reported activity change, negative = inhibition?
inactive

Look up activity change, negative = inhibition: "CCCCCCCCCCCC"
inactive

Could you share which activity change, negative = inhibition value was measured for "NC(=O)c1ccc(N)cc1" ?
inactive

Record request: activity change, negative = inhibition value, item "N[C@H](C(=O)O)c1ccc(O)cc1"
-17% [at 23.6 µM] (inactive)

***
What does the record list as activity change, negative = inhibition for CN1C(=O)N(C)C(O)C1O (stereo unspecified) ?
inactive

---

Experiment: qHTS assay to test for compound auto fluorescence at 590 nm (red) in HepG2 cells (AID 720674); also: % is scaled to controls: 0 for no effect and ±100 for the full control effect
Conditions: HepG2 autofluorescence, red 540/590 nm, 1 h; series mostly up to 46 µM
Source text: U.S. Tox21 Program National Center for Advancing Translational Sciences [NCATS] NIH Chemical Genomics Center [NCGC] U.S. Environmental Protection Agency [EPA] National Institutes of Environmental Health Sciences [NIEHS] National Toxicology Program [NTP] U.S. Food and Drug Administration [FDA] Tox21 Assay Overview: Compound auto fluorescence often interferes with screening of the compound library against various biological targets and signaling pathways. […] This assay includes the red fluorescence data. […]
Activity calls are given as the source filed them. Calls come from the whole dose curve; as a rule, active = well fitted curve in the direction sought with a large enough effect in the repeat runs; inconclusive = weak or mixed curves; inactive = flat fitted curve, though single readings scatter.
quantity.name: fluorescence, relative to Rose Bengal

Which fluorescence, relative to Rose Bengal value is on record for Cc1cccc(C)c1NC(=O)C(C)N (stereo unspecified) ?
inactive

Return reported fluorescence, relative to Rose Bengal; argument: "CN1CCCC1"
inactive

# get_value(readout='fluorescence, relative to Rose Bengal', item= "CC(=O)Nc1c(I)cc(I)c(C(=O)O)c1I" )
inactive

I'd like to know its fluorescence, relative to Rose Bengal. The compound in question is "CCCCC/C=C\CCC=O"
inactive

Report fluorescence, relative to Rose Bengal for "Nc1nc2c(ncn2COC(CO)CO)c(=O)[nH]1" please.
inactive

List fluorescence, relative to Rose Bengal for every entry below, keeping the order given.
1. O=C(O)CN(CCOCCOCCN(CC(=O)O)CC(=O)O)CC(=O)O
2. CC/C=C\CCOC(C)=O
3. CCC(C)C1CCCCC1=O (stereo unspecified)
4. OC1CCCCC1c1ccccc1 (stereo unspecified)
5. O=C(O)CCCl
6. FC1(F)C(F)(F)C(F)(F)C2(F)C(F)(F)C(F)(F)C(F)(F)C(F)(F)C2(F)C1(F)F (stereo unspecified)

inactive
inactive
inactive
inactive
inactive
inactive

Below is a list of compounds. For each, state its recorded fluorescence, relative to Rose Bengal.
1. CN1CCC(=C2c3ccccc3CC(=O)c3sccc32)CC1
2. CCCCC(CC)COC(=O)c1ccccc1O (stereo unspecified)
3. O=c1n(CCO)c(=O)n(CCO)c(=O)n1CCO
4. CCN1CCC[C@H]1CNC(=O)c1c(O)c(Cl)cc(Cl)c1OC

["inactive", "inactive", "inactive", "inactive"]

Could you tell me fluorescence, relative to Rose Bengal for each of these compounds? They are listed below.
1. CC(C)OC(=O)c1ccccc1
2. N[C@H]1CN(c2c(F)cc3c(=O)c(C(=O)O)cn(C4C[C@H]4F)c3c2Cl)CC12CC2 (stereo partly specified)
3. O=C(O)COc1nn(Cc2ccccc2)c2ccccc12
4. Cc1[nH]c(=O)c(C#N)cc1-c1ccc2nccn2c1
5. CC1(C)CO[C@@H](CC(=O)O)CN1
6. NC(=O)c1ccc([N+](=O)[O-])cc1

1: inactive; 2: inactive; 3: inactive; 4: inactive; 5: inactive; 6: inactive

---

Molecular target: Cytochrome P450 2D6 (Homo sapiens) (UniProt P10635)
Sequence (P10635 whole entry, looked up): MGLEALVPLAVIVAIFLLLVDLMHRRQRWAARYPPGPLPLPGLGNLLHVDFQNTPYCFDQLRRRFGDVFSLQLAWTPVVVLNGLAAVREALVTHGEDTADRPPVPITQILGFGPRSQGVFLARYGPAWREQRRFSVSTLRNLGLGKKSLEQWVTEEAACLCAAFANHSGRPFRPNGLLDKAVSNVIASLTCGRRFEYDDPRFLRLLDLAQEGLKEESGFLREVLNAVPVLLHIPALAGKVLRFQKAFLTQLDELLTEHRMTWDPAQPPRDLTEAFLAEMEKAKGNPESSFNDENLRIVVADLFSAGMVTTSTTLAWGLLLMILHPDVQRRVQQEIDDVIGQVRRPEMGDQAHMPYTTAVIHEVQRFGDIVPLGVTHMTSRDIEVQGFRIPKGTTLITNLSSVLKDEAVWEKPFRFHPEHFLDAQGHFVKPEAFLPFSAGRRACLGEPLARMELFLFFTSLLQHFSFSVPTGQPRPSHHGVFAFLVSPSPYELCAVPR
Assay: Cytochrome P450 Family 2 Subfamily D Member 6 (CYP2D6) small molecule antagonists: luciferase reporter qHTS assay (AID 1671196); also: nearly all actives have a fitted effect of over 50% in size
Details: P450-Glo CYP2D6 enzyme assay, luciferin luminescence, 1 h; series mostly up to 115 µM
Inconclusive results are not listed. Activity calls are given as the source filed them. Calls come from the whole dose curve; as a rule, active = well fitted inhibition curve with a large enough effect in the repeat runs; inconclusive = weak or mixed curves; inactive = no such curve, though single readings can be large or run the other way.
Output constraint: value belongs to active, inactive

Test call, this compound: "NC(=O)c1cn(Cc2c(F)cccc2F)nn1"
inactive

I would be grateful if you could indicate the recorded call for "O=c1cc(CO)occ1O" .
inactive

Could you check what this test reported for "O=C1CCCN1C1CCCCC1" ?
active

What is the recorded call for this compound in the test? "O=c1n(CCO)c(=O)n(CCO)c(=O)n1CCO"
inactive

Test call for this compound, please: "O=C1CCCC(=O)C1"
inactive

Now for another entry.
Assay result, entry "CC1(C)CO[C@@H](CC(=O)O)CN1" — outcome?
inactive
